tested on: Rattus norvegicus; test: Number of Swiss mice (Mus musculus) alive in a batch of 5 infected with multidrug-resistant Plasmodium yoelii, on day 28 after peroral administration of 96 mg/kg/day dose; assay type: functional; conditions: route oral
endpoint_name: Activity

Observe how each entry below is paired with its result.
INSERT INTO measurements (molecule, assay_value) VALUES
  ('C=C(c1ccccc1)C1COC2(CCC(O)(c3ccccc3)CC2)OO1 (stereo not drawn)', 0),
  ('C=C(c1ccccc1)C1COC2(CCC(OC(=O)CCC(=O)O)CC2)OO1 (stereo not drawn)', 0);

Problem: Requested read-out: Activity. Entry: C=C(c1ccccc1)C1COC2(CCC(=CC(=O)OCC)CC2)OO1 (stereo not drawn)
Solution: 5
